- measurement.description: DUSP6 inhibitors restoring Erk phosphorylation by chemical complementation, primary imaging in DUSP6-transfected HeLa (AID 609)
- experimental.context: HeLa MKP-3 transfected, phospho-Erk imaging KS statistic; measured here: nuclear pErk red intensity z-score; at 10 µM; stronger effect = higher value; cells stimulated with TPA for 15 min
metric.name: z-score
# respond with the number and nothing more

Problem: # z-score lookup, item CC(=O)C1=C(O)C(=O)N(c2cccc(C(=O)O)c2)C1c1ccc(F)cc1 (centres undefined)
Solution: 1.35

Problem: # z-score lookup, item `C=CCn1c(SCc2c(F)c(F)c(F)c(F)c2F)nc(O)cc1=O`
Solution: 0.131

Problem: # z-score lookup, item `COc1ccc(C2=Nn3c(nnc3-c3ccccn3)SC2)cc1`
Solution: -0.686

Problem: # z-score lookup, item `Cn1c(OCc2cccnc2)nc2c1c(=O)n(Cc1ccc(Cl)cc1)c(=O)n2C`
Solution: 1.27

Problem: # z-score lookup, item O=C1CC(NCc2ccc3c(c2)OCO3)C(=O)N1Cc1ccc2c(c1)OCO2 (centres undefined)
Solution: -0.627

Problem: # z-score lookup, item `O=C(NCc1ccccc1)c1ccc(=O)[nH]n1`
Solution: -1.98

Problem: # z-score lookup, item CCOc1ccc(/C(O)=C2/C(=O)C(=O)N(c3nc(C)c(C)s3)C2c2ccco2)cc1 (centres undefined)
Solution: 1.89

Problem: # z-score lookup, item `COc1ccc(C(=O)Cn2c(Br)nc3c2c(=O)n(C)c(=O)n3C)cc1OC`
Solution: -0.0762

Problem: # z-score lookup, item `CCN(CC)C(=O)CN(C#N)c1nc(NC(C)C)nc(NC(C)C)n1`
Solution: -0.0328

---

- measurement.description: inhibitors of Chlamydomonas gravitaxis, primary screen, whole organism, Chlamydomonas reinhardtii, WT vs cilia-less mutant, absorbance, 96-well (AID 463189);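 also: 0% = wild type cc124 cells in DMSO and 100% = ciliumless bld1 mutant cells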
- experimental.context: OD600 absorbance, 2 days, at 10 µM, stronger effect = higher value
I'd be grateful if you could share measured inhibition for these entries.
Reply with just the number (in %).

Problem: # inhibition lookup, item `CCCCn1cnc2c(c1=O)c1nc3ccccc3nc1n2Cc1ccc2c(c1)OCO2`
Solution: 10.8

Problem: # inhibition lookup, item `Nn1c(SCC(=O)Nc2ccc3c(c2)OCCO3)nnc1C(F)(F)F`
Solution: 11.3

Problem: # inhibition lookup, item `COc1ccc(NCc2cc3ccccc3[nH]c2=O)cc1`
Solution: 7.35

Problem: # inhibition lookup, item `COc1ccccc1-n1c(=O)c2c3c(sc2n2c(SC(C)C)nnc12)CCC3`
Solution: 34.4

Problem: # inhibition lookup, item `CC(=O)C1=C(NC(=O)c2ccccc2F)C[C@@H]2[C@H]1C2(C)C`
Solution: 13.1

Problem: # inhibition lookup, item `Cc1nc(Sc2cccn2C)c(C(F)(F)F)c(=O)[nH]1`
Solution: 12.2

Problem: # inhibition lookup, item `N/C(=N\c1nc2ccccc2o1)NC(=O)c1ccccc1NC(=O)c1ccccc1`
Solution: 9.27

Problem: # inhibition lookup, item `O=C(NCc1cccnc1)c1ccc(=O)oc1`
Solution: 18.7

Problem: # inhibition lookup, item CCOC(=O)c1ccc(N2C(=O)CC(Sc3nnc(C)s3)C2=O)cc1 (centres undefined)
Solution: 30.9

Problem: # inhibition lookup, item `Nc1ncnc2c1ncn2[C@@H]1O[C@H](CO)[C@@H](O)[C@H]1O`
Solution: -7.15

Problem: # inhibition lookup, item `Cc1nc2sc(C#N)c(N)c2c2c1CCCC2`
Solution: 3.68

Problem: # inhibition lookup, item `CC(=O)O[C@]1(C(C)=O)CC[C@H]2[C@@H]3C[C@H](C)C4=CC(=O)CC[C@]4(C)[C@H]3CC[C@@]21C`
Solution: -2.6

Problem: # inhibition lookup, item `Cc1csc(NC(=O)CSc2nsc(SCC(=O)Nc3nc(C)cs3)c2C#N)n1`
Solution: 2.21

Problem: # inhibition lookup, item `CC(C)c1nc2n[nH]c(N)c2c2c1CCC2`
Solution: 2.52

---

- measurement.description: inhibitors of Chlamydomonas gravitaxis, primary screen, whole organism, Chlamydomonas reinhardtii, WT vs cilia-less mutant, absorbance, 96-well (AID 463189);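 also: 0% = wild type cc124 cells in DMSO and 100% = ciliumless bld1 mutant cells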
- experimental.context: OD600 absorbance, 2 days, at 10 µM
Activity calls are given as the source filed them.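 How the source made its calls: active means inhibition at or above 50% relative to wild type and mutant plate controls; inactive means inhibition below 50%.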
Please reply with one of these outcomes: True (active), False (inactive)

Problem: Which outcome did this test record for the compound Cc1ccc(-n2c(=O)c3c4c(sc3n3c(C)nnc23)COC(C(C)C)C4)cc1 (stereo not drawn) ?
Solution: False

Problem: Which outcome did this test record for the compound `COCCCNc1nc(-c2ccncc2)nc2ccccc12` ?
Solution: True

Problem: Which outcome did this test record for the compound CC(=O)Oc1ccccc1C1OC(=O)c2ccccc2N1C(C)=O (stereo not drawn) ?
Solution: False

Problem: Which outcome did this test record for the compound C[N+]12CCC(CC1)C(OC(=O)C(O)(c1ccccc1)c1ccccc1)C2 (stereo not drawn) ?
Solution: False

Problem: Which outcome did this test record for the compound `Nc1nnc(CC2=CCCCC2)s1` ?
Solution: False

Problem: Which outcome did this test record for the compound CC1CN(C2CCN(S(=O)(=O)c3ccc4ccccc4c3)CC2)CC(C)O1 (stereo not drawn) ?
Solution: True

Problem: Which outcome did this test record for the compound CCOC(=O)CSC1=C(C#N)C(=O)NC(c2ccc(OC)c(OC)c2)S1 (stereo not drawn) ?
Solution: False

Problem: Which outcome did this test record for the compound `O=C(CNC1=NCCC1)c1ccc2c(c1)OCCO2` ?
Solution: False

Problem: Which outcome did this test record for the compound COc1ccc(C=NCCC2(O)CC(C)N(C)CC2C)cc1 (stereo not drawn) ?
Solution: False

Problem: Which outcome did this test record for the compound `C=CCNc1nc(-c2cccc(OC)c2O)nc2ccccc12` ?
Solution: False

Problem: Which outcome did this test record for the compound `Cc1cc(-c2cc(-c3ccc(Cl)cc3)nc(N)c2C#N)co1` ?
Solution: False

Problem: Which outcome did this test record for the compound O=C1CC(c2ccco2)CC(O)=C1C=Nc1cc(Cl)ccc1O (stereo not drawn) ?
Solution: False

Problem: Which outcome did this test record for the compound `Cc1ccc(S(=O)(=O)N2CCN(c3nc(C)c4c(c3C#N)CC(C)(C)OC4)CC2)cc1` ?
Solution: True

---

- assay.target: Voltage-gated potassium channel subunit beta-2 (Rattus norvegicus)
- measurement.description: KvBeta enzyme negative modulators, primary screen, biochemical, NADPH fluorescence (AID 622);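 also: slope of raw intensity against log time taken from 70 to 1610 s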
- experimental.context: recombinant KvBeta, 4-cyanobenzaldehyde reduction, at 10 µM, stronger effect = higher value
I'd be grateful if you could share measured fluorescence slope for these entries.
# respond with the number and nothing more

Problem: # fluorescence slope lookup, item CCC(C)Nc1nc(-c2cccc(OC)c2O)nc2ccccc12 (stereo not drawn)
Solution: -0.394

Problem: # fluorescence slope lookup, item `CCOC(=O)c1cc2c(=O)n3ccccc3nc2n(Cc2ccccc2Cl)c1=N`
Solution: -0.39

Problem: # fluorescence slope lookup, item `CCOC(=O)COc1nc(N(C)C)nc(N(C)C)n1`
Solution: -0.492

Problem: # fluorescence slope lookup, item `Cc1ccc(-c2nn3c(-c4cccc(Cl)c4)nnc3s2)cc1`
Solution: -0.434

Problem: # fluorescence slope lookup, item `O=C(c1cccs1)N1CCC(N2CCN(c3ccccc3)CC2)CC1`
Solution: -0.378

Problem: # fluorescence slope lookup, item `O=C1N[C@@H](Cc2cnc[nH]2)C(=O)N2CCC[C@@H]12`
Solution: -0.516

Problem: # fluorescence slope lookup, item `CC1(C)Cc2c(sc3ncn4nnnc4c23)CO1`
Solution: -0.522

Problem: # fluorescence slope lookup, item `O=CN1CCN(C(=O)CN2C(=O)c3ccccc3C2=O)CC1`
Solution: -0.452

Problem: # fluorescence slope lookup, item `CNC(=O)Nc1cccc(NC(=O)NC)n1`
Solution: -0.456

Problem: # fluorescence slope lookup, item `CCOC(=O)N1CCC(=C2c3ccc(Cl)cc3CCc3cccnc32)CC1`
Solution: -0.512

Problem: # fluorescence slope lookup, item Cc1cccc(N)c1SC1CCCCC1O (stereo not drawn)
Solution: -0.46

Problem: # fluorescence slope lookup, item `Cn1c(OCc2ccco2)nc2c1c(=O)n(Cc1ccc(Cl)c(Cl)c1)c(=O)n2C`
Solution: -0.521

Problem: # fluorescence slope lookup, item CCN=C1SC(C(=O)Nc2ccc(Cl)c(Cl)c2)CC(=O)N1CC (stereo not drawn)
Solution: -0.423

Problem: # fluorescence slope lookup, item C=CCOC(=O)C(C#N)c1nc2ccccc2nc1N1CCC(C(=O)OCC)CC1 (stereo not drawn)
Solution: -0.471

Problem: # fluorescence slope lookup, item `CCn1nnc(C(=O)O)c1C(=O)O`
Solution: -0.486

Problem: # fluorescence slope lookup, item Cc1nc2c(c(=O)n1CC1CCCO1)c1nc3ccccc3nc1n2CCC(C)C (stereo not drawn)
Solution: -0.381

Problem: # fluorescence slope lookup, item `CCN1CCc2c(C#N)c(N3CCCCC3)nc(NCc3ccccc3)c2C1`
Solution: -0.472

Problem: # fluorescence slope lookup, item `Nc1c(Br)cc2oc(-c3ccccc3)nc2c1Br`
Solution: -0.482

Problem: # fluorescence slope lookup, item COc1ccc2c(c1)C1(C)CC(C)(C)N2C(=O)N1c1ccccc1 (stereo not drawn)
Solution: -0.461

Problem: # fluorescence slope lookup, item Cc1coc2c(O)cc3c(c12)OC1(N2CCCCC2)C(=O)NCCCC31 (stereo not drawn)
Solution: -0.515

Problem: # fluorescence slope lookup, item `CC(C)(C)c1cccc(/C=N/O)c1O`
Solution: -0.526

Problem: # fluorescence slope lookup, item `Cc1csc(NC(=O)CSc2nsc(SCC(=O)Nc3nc(C)cs3)c2C#N)n1`
Solution: -0.37

Problem: # fluorescence slope lookup, item `COc1ccc(OC)c2c1CCC2=O`
Solution: -0.0756

Problem: # fluorescence slope lookup, item `O=C(N(c1ccccc1)c1ccccc1)n1ccnc1`
Solution: -0.487

Problem: # fluorescence slope lookup, item `C/C=C(/C(=C/C)c1ccc(O)cc1)c1ccc(O)cc1`
Solution: -0.459

Problem: # fluorescence slope lookup, item `C=CCOn1c(=O)c(-c2cc3ccccc3o2)[n+]([O-])c2ccccc21`
Solution: -0.123

Problem: # fluorescence slope lookup, item CC1(C)NC(=O)N(CC(O)COc2ccccc2C(=O)Nc2ccccc2)C1=O (stereo not drawn)
Solution: -0.495

Problem: # fluorescence slope lookup, item `CCOC(=O)C(NC=O)(NC(C)(C)C)C(=O)OCC`
Solution: -0.493

Problem: # fluorescence slope lookup, item `OCCCc1nc2ccccc2n1CCc1ccccc1`
Solution: -0.421

Problem: # fluorescence slope lookup, item `CC(C)Cc1nc(N2CCOCC2)c(C#N)c2c1CCC2`
Solution: -0.511

Problem: # fluorescence slope lookup, item COc1ccc(/C(O)=C2/C(=O)C(=O)N(CCCN(C)C)C2c2ccco2)cc1Cl (stereo not drawn)
Solution: -0.426

Problem: # fluorescence slope lookup, item `CN1CCc2nc(SCC(=O)Nc3ccc(Cl)cc3)c(C#N)cc2C1`
Solution: -0.422

Problem: # fluorescence slope lookup, item `CCCNC(=O)NS(=O)(=O)c1ccc(Cl)cc1`
Solution: -0.477

Problem: # fluorescence slope lookup, item O=C1C=C(O)CC(c2cccs2)C1 (stereo not drawn)
Solution: -0.536

Problem: # fluorescence slope lookup, item `O=c1/c(=C\c2cccn2-c2ccccc2)sc2nc3ccccc3n12`
Solution: -0.181

Problem: # fluorescence slope lookup, item `CCC(NC(=O)Nc1cc(OC)c(OC)c(OC)c1)(C(F)(F)F)C(F)(F)F`
Solution: -0.48

Problem: # fluorescence slope lookup, item CN1C2C=C3C(C#N)=C(N)C(C#N)(C#N)[C@@H](c4ccc(Cl)cc4)[C@@H]3C1CC2 (stereo partly drawn)
Solution: -0.517

Problem: # fluorescence slope lookup, item `O=C(Nc1ccccc1C(=O)NCCCn1ccnc1)c1ccccc1`
Solution: -0.353
